- Read-out: Interferon-gamma inducible Protein 10 (IP10), CXCL10 (gene 3627)
- measurementDescription: BSK_hDFCGF_IP10: BioMAP Diversity Plus: hDFCGF Assay for Interferon-gamma inducible Protein 10 (IP10) Biomarker Activity (AID 2283053)
- conditions: primary human foreskin fibroblasts; actives raise or lower the signal
- Protocol: BSK_hDFCGF is a cell-based, multiplexed-readout assay that uses foreskin fibroblast, a human skin primary cell, with measurements taken at 24 hours after chemical dosing in a 96-well plate.BSK_hDFCGF_IP10 is an assay component measured in the BSK_hDFCGF assay. It measures IP-10 antibody related to regulation of gene expression using ELISA technology.Data from the assay component BSK_hDFCGF_IP10 was analyzed into 1 assay endpoint. […]
Active and inactive are the calls of the source. The calls were made as follows: active = hit-call score of the fitted dose curve at least 0.9, where 1 is the maximum; inactive = score below 0.9.
Allowed answers: active, inactive

Below are worked cases with known answers.
CC(C1CC1)C(O)(Cn1cncn1)c1ccc(Cl)cc1 (configuration not stated)    inactive
CCOP(=O)(NC(C)C)Oc1ccc(SC)c(C)c1 (configuration not stated)    inactive
COc1cc(OC)nc(Sc2cccc(Cl)c2C(=O)O)n1    inactive
CCCSP(=O)(OCC)SCCC    inactive
CC(COc1ccc(Oc2ccccc2)cc1)Oc1ccccn1 (configuration not stated)    inactive
C[N+]1(C)CCCCC1    inactive

Please look at the following compound next.
In: I'd appreciate the recorded outcome for `Cc1cc(C2CC2)nc(Nc2ccccc2)n1` from this test.
Out: active

Reference source: PubChem BioAssay (EPA / NIEHS)
